All figures here come from ChEMBL document CHEMBL1828516.

Experiment: Selectivity index, ratio of GI50 for human HepG2 cells to IC50 for Plasmodium falciparum 3D7
Format: functional
value_type: Selectivity Index

QUERY: What measured Selectivity Index goes with Cl.Cl.O=C(NCCCNCCCCCCCNCCCNC(=O)NC(c1ccccc1)c1ccccc1)NC(c1ccccc1)c1ccccc1 ?
RESULT: >1500

QUERY: What measured Selectivity Index goes with Cl.Cl.S=C(NCCCNCCCCNCCCNC(=S)NCc1ccccc1)NCc1ccccc1 ?
RESULT: >500

QUERY: What measured Selectivity Index goes with Cl.Cl.S=C(NCCCNCCCCCCNCCCNC(=S)NCc1ccccc1)NCc1ccccc1 ?
RESULT: >1500

QUERY: What measured Selectivity Index goes with Cl.Cl.S=C(NCCCNCCCCCCNCCCNC(=S)NC(c1ccccc1)c1ccccc1)NC(c1ccccc1)c1ccccc1 ?
RESULT: >500
